pIC50: −log10 of the molar value.
Below are pIC50 values measured for RORc ligand binding domain (Homo sapiens, UniProt P51449).
measured.property: pIC50

{"compound": "CC(C)(O)Cn1cc(-c2cncc([C@@]34CC[C@@H](c5cc(-c6c(F)cccc6F)nnc53)C4(C)C)n2)cn1 [Example 406]", "measured.property": "pIC50", "test.value": 8.12}
{"compound": "CC(C)(O)c1ncc(-c2cncc([C@@]34CC[C@@H](c5cc(-c6c(F)cccc6F)nnc53)C4(C)C)n2)o1 [Example 347]", "measured.property": "pIC50", "test.value": 8.17}
{"compound": "CC(C)(O)c1cnc(-c2cncc([C@@]34CC[C@@H](c5cc(-c6c(F)cccc6F)nnc53)C4(C)C)n2)cn1 [Example 400]", "measured.property": "pIC50", "test.value": 8.06}
{"compound": "CC1(C)[C@H]2CC[C@]1(c1cncc(-n3cc[nH]c3=O)n1)c1nnc(-c3c(F)cccc3F)cc12 [Example 202]", "measured.property": "pIC50", "test.value": 7.97}
{"compound": "CC1(C)[C@H]2CC[C@]1(c1ccnc(NC[C@@H](O)CO)n1)c1nnc(-c3c(F)cccc3F)cc12 [Example 154]", "measured.property": "pIC50", "test.value": 7.38}
{"compound": "CC1(C)[C@H]2CC[C@]1(c1cncc(-n3cc(CO)cn3)n1)c1nnc(-c3c(F)cccc3F)cc12 [Example 243]", "measured.property": "pIC50", "test.value": 7.93}

[P] CC1(C)[C@@H]2CC[C@@]1(c1cccc(C#N)n1)c1nnc(-c3c(F)cccc3F)cc12 [Example 59]
[Q] C[C@@H](O)CNC(=O)c1cccc([C@@]23CC[C@@H](c4cc(-c5c(F)cccc5F)nnc42)C3(C)C)n1 [Example 62]
[R] CC1(C)[C@H]2CC[C@]1(c1nc(N)ncc1F)c1nnc(-c3c(F)cccc3F)cc12 [Example 268]
[S] CC1(C)[C@H]2CC[C@]1(c1cccc(S(=O)(=O)NC3(CO)COC3)n1)c1nnc(-c3c(F)cccc3F)cc12 [Example 199]
Rank the 4 compounds: largest pIC50 first, smallest last. Please respond by ranking the labels in the order requested.
R, S, P, Q

[P] Cc1ncn(-c2ncc(F)c([C@@]34CC[C@@H](c5cc(-c6c(F)cccc6F)nnc53)C4(C)C)n2)n1 [Example 267]
[Q] CC1(C)[C@@H]2CC[C@@]1(c1cncc(C(N)=O)n1)c1nnc(-c3c(F)cccc3F)cc12 [Example 58]
Form field 'greater pIC50' accepts P or Q ; which applies? Selection: enter the item's label.
P
(P: 7.76, Q: 7.50)

[a] CC1(C)[C@H]2CC[C@]1(c1cccc(C(=O)NCC3(O)COC3)n1)c1nnc(-c3c(F)cccc3F)cc12 [Example 131]
[b] COCCNC(=O)c1cccc([C@@]23CC[C@@H](c4cc(-c5c(F)cccc5F)nnc42)C3(C)C)n1 [Example 39]
Which gives the smaller pIC50 number: a or b ? Pick one and reply with its label.
a
(a: 7.35, b: 7.94)

* * *

Target: RORc ligand binding domain (Homo sapiens)
Sequence (P51449 269-508 limits assumed): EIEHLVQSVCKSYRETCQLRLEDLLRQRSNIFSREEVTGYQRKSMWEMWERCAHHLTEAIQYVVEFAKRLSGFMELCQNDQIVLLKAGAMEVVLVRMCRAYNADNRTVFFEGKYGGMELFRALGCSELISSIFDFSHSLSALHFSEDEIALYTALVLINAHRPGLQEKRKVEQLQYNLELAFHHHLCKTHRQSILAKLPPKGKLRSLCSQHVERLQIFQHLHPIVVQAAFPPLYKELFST
pIC50: −log10 of the molar value.
measured.property: pIC50

[1] CC(C)(O)c1coc(-c2nccc([C@@]34CC[C@@H](c5cc(-c6c(F)cccc6F)nnc53)C4(C)C)n2)n1 [Example 350]
[2] COC(=O)c1n[nH]c(=O)cc1[C@@]12CC[C@@H](c3cc(-c4c(F)cccc4F)nnc31)C2(C)C [Example 436]
Param metric = pIC50; output whichever of 1 , 2 has the minimum value. Kindly give the label for the entry you pick.
2
(2: 6.72, 1: 7.79)

* * *

Molecular target: RORc ligand binding domain (Homo sapiens, UniProt P51449)
Sequence (P51449 269-508 limits assumed): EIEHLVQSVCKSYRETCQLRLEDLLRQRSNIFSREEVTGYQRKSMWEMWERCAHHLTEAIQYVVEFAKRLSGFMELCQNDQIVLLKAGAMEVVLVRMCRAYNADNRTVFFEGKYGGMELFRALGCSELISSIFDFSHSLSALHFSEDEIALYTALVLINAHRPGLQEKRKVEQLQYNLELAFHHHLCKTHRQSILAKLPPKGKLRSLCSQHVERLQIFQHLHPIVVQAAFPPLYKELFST
pIC50: −log10 of the molar value.
measured.property: pIC50

Previously resolved entries follow.
{"smi": "CC1(C)[C@H]2CC[C@]1(c1cncc(NS(C)(=O)=O)n1)c1nnc(-c3c(F)cccc3F)cc12", "system.under.test": "RORc ligand binding domain (Homo sapiens, UniProt P51449)", "measured.property": "pIC50", "test.value": 7.12}
{"smi": "COC(=O)c1ncc(Br)c([C@@]23CC[C@@H](c4cc(-c5c(F)cccc5F)nnc42)C3(C)C)n1", "system.under.test": "RORc ligand binding domain (Homo sapiens, UniProt P51449)", "measured.property": "pIC50", "test.value": 7.58}
{"smi": "C[C@@H](O)c1nnc(-c2cncc([C@@]34CC[C@@H](c5cc(-c6c(F)cccc6F)nnc53)C4(C)C)n2)[nH]1", "system.under.test": "RORc ligand binding domain (Homo sapiens, UniProt P51449)", "measured.property": "pIC50", "test.value": 7.68}
{"smi": "Cc1ncn(-c2cc([C@@]34CC[C@@H](c5cc(-c6c(F)cccc6F)nnc53)C4(C)C)cnn2)n1", "system.under.test": "RORc ligand binding domain (Homo sapiens, UniProt P51449)", "measured.property": "pIC50", "test.value": 7.04}
{"smi": "Cc1cnc(-c2cncc([C@@]34CC[C@@H](c5cc(-c6c(F)cccc6F)nnc53)C4(C)C)n2)o1", "system.under.test": "RORc ligand binding domain (Homo sapiens, UniProt P51449)", "measured.property": "pIC50", "test.value": 8.27}
{"smi": "CC(C)(O)c1nnc(-c2ncc(Cl)c([C@@]34CC[C@@H](c5cc(-c6c(F)cccc6F)nnc53)C4(C)C)n2)[nH]1", "system.under.test": "RORc ligand binding domain (Homo sapiens, UniProt P51449)", "measured.property": "pIC50", "test.value": 7.30}
{"smi": "CC(C)(C)OC(=O)N1CCC(c2nccc([C@@]34CC[C@@H](c5cc(-c6c(F)cccc6F)nnc53)C4(C)C)n2)CC1", "system.under.test": "RORc ligand binding domain (Homo sapiens, UniProt P51449)", "measured.property": "pIC50", "test.value": 7.89}

[I] CC1(C)[C@H]2CC[C@]1(c1cncc(-c3nc([C@@H](O)CO)n[nH]3)n1)c1nnc(-c3c(F)cccc3F)cc12
[II] CC1(C)[C@H]2CC[C@]1(c1ccnc(-n3cnc(C(N)=O)n3)n1)c1nnc(-c3c(F)cccc3F)cc12
[III] C=C(C)c1cnc(-c2cncc([C@@]34CC[C@@H](c5cc(-c6c(F)cccc6F)nnc53)C4(C)C)n2)o1
Arrange these 3 compounds in increasing order of pIC50. # respond with the labels, arranged in the requested order
II, I, III
(II: 7.55, I: 7.97, III: 8.80)

* * *

Biological target: RORc ligand binding domain (Homo sapiens, UniProt P51449)
measured.property: IC50 (nM)

Look over these answered cases.
{"smi": "CC1(C)[C@H]2CC[C@]1(c1cc(-c3nnc(CO)o3)ccn1)c1nnc(-c3c(F)cccc3F)cc12", "IC50, nM": 167}
{"smi": "CC(C)(O)c1nc(-c2cncc([C@@]34CC[C@@H](c5cc(-c6c(F)cccc6F)nnc53)C4(C)C)n2)oc1Br", "IC50, nM": 12.1}
{"smi": "CC1(C)[C@@H]2CC[C@@]1(c1cccc(C(=O)NCCO)n1)c1nnc(-c3c(F)cccc3F)cc12", "IC50, nM": 40.9}
{"smi": "CC1(C)[C@H]2CC[C@]1(c1ccc(C#N)nc1)c1nnc(-c3c(F)cccc3Cl)cc12", "IC50, nM": 159}
{"smi": "CC(C)(O)c1cc(-c2cncc([C@@]34CC[C@@H](c5cc(-c6c(F)cccc6F)nnc53)C4(C)C)n2)[nH]n1", "IC50, nM": 20}
{"smi": "CC1(C)[C@H]2CC[C@]1(c1cccc(N)n1)c1nnc(-c3c(F)cccc3F)cc12", "IC50, nM": 2.6}
{"smi": "Cc1ncn(-c2cncc([C@@]34CC[C@@H](c5cc(-c6c(F)cccc6F)nnc53)C4(C)C)n2)n1", "IC50, nM": 8.6}
{"smi": "Cc1ncc(C(=O)NCCO)nc1[C@@]12CC[C@@H](c3cc(-c4c(F)cccc4F)nnc31)C2(C)C", "IC50, nM": 119}

[a] CC1(C)[C@H]2CC[C@]1(c1cncc(C(=O)O)n1)c1nnc(-c3c(F)cccc3F)cc12
[b] Cc1nnc(-c2ccnc([C@@]34CC[C@@H](c5cc(-c6c(F)cccc6F)nnc53)C4(C)C)c2)o1
Lower value of IC50 belongs to which: a or b ? Give the chosen item's label as your response.
a
